This section presents compounds with their documented pIC50 values.
- assay system: human Cot catalytic domain (30-397 amino acids) (Homo sapiens)
- Construct: Purified recombinant human Cot catalytic domain (30-397 amino acids) was purchased from Cama Biosciences; purchased Cama Biosciences (so in the source)
- assay remarks: High Throughput Cot Biochemical Assay (KinEASE TR-FRET)
- test context: Cot KinEASE TR-FRET, 400 μM ATP; read-out: IC50 HTRF
In plain terms, pIC50 is the concentration in mol/L turned into minus its base-10 logarithm.

> print(dat)
                                   compound                              assay.system  quantitative.readout
1  CC(C)(C)CNc1c(C#N)cnc2c(C#N)cc(N[C@H](c3cn(C(C)(C)C(N)=O)nn3)c3ccccc3Cl)cc12  human Cot catalytic domain (30-397 amino acids) (Homo sapiens)                  8.40
2  N#Cc1cnc2c(Cl)cc(NC(c3ccc(F)cc3)c3cocn3)cc2c1Nc1ccc(F)c(Cl)c1 (stereo not shown)  human Cot catalytic domain (30-397 amino acids) (Homo sapiens)                  6.36
3  CC(C)(C)CNc1c(C#N)cnc2c(Cl)cc(N[C@@H](c3ccccc3)c3cn(C45CC(C4)C5)nn3)cc12  human Cot catalytic domain (30-397 amino acids) (Homo sapiens)                  7.77

Entry `[2H][C@](Nc1cc(Cl)c2ncc(C#N)c(NC3(C(F)F)CC3)c2c1)(c1ccc(F)cc1)c1cn(C2CC2)nn1` has what pIC50? 6.15

---

- assay system: human Cot catalytic domain (30-397 amino acids) (Homo sapiens, UniProt P41279)
- Construct: Purified recombinant human Cot catalytic domain (30-397 amino acids) was purchased from Cama Biosciences; purchased Cama Biosciences (so in the source)
- Sequence (P41279 30-397): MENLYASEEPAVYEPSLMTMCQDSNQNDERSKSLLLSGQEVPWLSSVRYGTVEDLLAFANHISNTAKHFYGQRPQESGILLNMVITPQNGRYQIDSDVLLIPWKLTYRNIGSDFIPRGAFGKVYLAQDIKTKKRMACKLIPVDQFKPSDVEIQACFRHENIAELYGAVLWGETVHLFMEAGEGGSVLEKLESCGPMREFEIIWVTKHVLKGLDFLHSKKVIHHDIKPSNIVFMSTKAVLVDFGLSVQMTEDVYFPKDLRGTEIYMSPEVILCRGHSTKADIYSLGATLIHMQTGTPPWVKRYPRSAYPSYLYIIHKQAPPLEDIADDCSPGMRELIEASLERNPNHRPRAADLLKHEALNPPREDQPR
- assay remarks: High Throughput Cot Biochemical Assay (KinEASE TR-FRET)
- test context: Cot KinEASE TR-FRET, 400 μM ATP; read-out: IC50 HTRF
- Excerpt: Example 61: High Throughput Cot Biochemical Assay In this assay, Cot-catalyzes the phosphorylation of a XL665-labeled peptide substrate. Europium conjugated phospho-tyrosine specific antibody binds the resulting phosphorylated peptide. […] Purified recombinant human Cot catalytic domain (30-397 amino acids) was purchased from Cama Biosciences. […]
pIC50: −log10 of the molar value.
Label rule, in plain words: pIC50 of 8 and up is rule met, under 8 is rule not met.

> print(dat)
                                   molecule  assigned.label
1  Cc1c([C@H](Nc2cc(Cl)c3ncc(C#N)c(NCC(C)(C)C)c3c2)c2cn(C3(C(F)(F)F)CC3)nn2)cccc1-n1cnnc1        rule met

Evaluate `CC(C)(C)CNc1c(C#N)cnc2c(Cl)cc(N[C@@H](c3ccc(F)c(C(N)=O)c3)c3cn(C4(C(F)(F)F)CC4)nn3)cc12` : pIC50 at minimum 8? rule not met

Here is the next molecule: `CC[C@@H](Nc1c(C#N)cnc2c(C#N)cc(N[C@@H](c3cccc(C(N)=O)c3)c3cn(C4CC4)nn3)cc12)c1ccccc1` rule met

Also, N#Cc1cnc2c(Cl)cc(NC(c3ccc(F)cc3)c3cn(C4CCN(C(=O)OCc5ccccc5)CC4)nn3)cc2c1Nc1ccc(F)c(Cl)c1 (stereo not drawn) please. rule not met

`Cc1cc(C#N)ccc1[C@H](Nc1cc(C#N)c2ncc(C#N)c(NCC(C)(C)C)c2c1)c1cn(C2(C(F)(F)F)CC2)nn1` ? rule not met

Okay, and `CC(C)(C)CNc1c(C#N)cnc2c(C#N)cc(N[C@H](c3cn(C4(C#N)CC4)nn3)c3ccccc3Cl)cc12` ? rule met

---

- assay system: human Cot catalytic domain (30-397 amino acids) (Homo sapiens, UniProt P41279)
- Construct: Purified recombinant human Cot catalytic domain (30-397 amino acids) was purchased from Cama Biosciences; purchased Cama Biosciences (so in the source)
- assay remarks: High Throughput Cot Biochemical Assay (KinEASE TR-FRET)
- test context: Cot biochemical HTRF (KinEASE TR-FRET) assay; read-out: IC50 HTRF
pIC50: −log10 of the molar value.
Decision: pIC50 >= 7 yields TRUE, all other cases yield FALSE.

> print(dat)
                                   compound  assigned.label
1  N#Cc1cnc2c(Cl)cc(N[C@@H](c3ccccc3)c3cn(C4C5CNCC54)nn3)cc2c1Nc1ccc(F)c(Cl)c1 (stereo partly shown)            TRUE
2  Cn1cc(Nc2c(C#N)cnc3c(Cl)cc(N[C@@H](c4ccccc4)c4cn(C5COC5)nn4)cc23)ccc1=O           FALSE
3  CCCCNc1c(C#N)cnc2c(Cl)cc(N[C@@H](c3ccc(Cl)cc3)c3cn(C4CCN(C(C)(C)C)CC4)nn3)cc12           FALSE

Decide: is the reported value of pIC50 for `CC(C)(C)N1CCC(n2cc([C@@H](Nc3cc(Cl)c4ncc(C#N)c(Nc5ccc(F)c(Cl)c5)c4c3)c3cccc(C(=O)N4CC(F)(F)C4)c3)nn2)CC1` equal to or greater than 7? TRUE

Quick one: `CC[C@@H](Nc1c(C#N)cnc2c(Cl)cc(N[C@@H](c3cccc(N(C)C(C)=O)c3)c3c[nH]nn3)cc12)c1ccccc1` TRUE

Request: `COc1ncccc1Nc1c(C#N)cnc2c(Cl)cc(N[C@@H](c3ccccc3)c3cn(C4CCN(C(C)(C)C)CC4)nn3)cc12` FALSE

Same for `CC(C)(C)N1CCC(n2cc([C@@H](Nc3cc(Cl)c4ncc(C#N)c(N[C@@H]5CCc6ccccc65)c4c3)c3ccccc3)nn2)CC1` FALSE

What do you have for `CC[C@@H](Nc1c(C#N)cnc2c(Cl)cc(N[C@@H](c3cccc(C(=O)N(C)C)c3)c3c[nH]nn3)cc12)c1ccccc1` ? TRUE

Same question for `CC(C)(O)CNc1c(C#N)cnc2c(Cl)cc(N[C@@H](c3ccccc3)c3cn(C4CCN(C(C)(C)C)CC4)nn3)cc12` please. FALSE

Also `N#Cc1cnc2c(Cl)cc(N[C@@H](c3cccc(CN4CC(F)(F)C4)c3)c3c[nH]nn3)cc2c1Nc1ccc(Cl)c(Cl)c1F` ? TRUE

Now try `CCN1CC[C@@H](n2cc([C@@H](Nc3cc(Cl)c4ncc(C#N)c(Nc5ccc(F)c(Cl)c5)c4c3)c3ccccc3)nn2)[C@H](O)C1` . TRUE

---

- assay system: human Cot catalytic domain (30-397 amino acids) (Homo sapiens)
- Construct: Purified recombinant human Cot catalytic domain (30-397 amino acids) was purchased from Cama Biosciences; purchased Cama Biosciences (so in the source)
- assay remarks: High Throughput Cot Biochemical Assay (KinEASE TR-FRET)
- test context: IC50/EC50 [nM]: IC50 (Cot), first value of the cell IC50/EC50; 400 μM ATP, 5 nM Cot
parameter: IC50

Look at this compound and give its reported IC50. Cn1cc(CNc2cc(Cl)c3ncc(C#N)c(Nc4ccc(F)c(Cl)c4)c3c2)nn1 [Comparative Example 3, reference compound] 67 nM

---

Catalogue of IC50 readings, one per entry.
- assay system: human Cot catalytic domain (30-397 amino acids) (Homo sapiens)
- Construct: Purified recombinant human Cot catalytic domain (30-397 amino acids) was purchased from Cama Biosciences; purchased Cama Biosciences (so in the source)
- assay remarks: High Throughput Cot Biochemical Assay (KinEASE TR-FRET)
- test context: Cot biochemical HTRF (KinEASE TR-FRET) assay; read-out: IC50 HTRF
The figure you give is taken to be in nM; do not add the unit.

# annotated cases, reported IC50 shown
> print(dat)
                                   compound                              assay.system  parameter  quantitative.readout
1  N#Cc1cnc2c(Cl)cc(N[C@@H](c3ccccc3)c3cn(CC(O)C(F)(F)F)nn3)cc2c1Nc1ccc(F)c(Cl)c1 (stereo partly shown)  human Cot catalytic domain (30-397 amino acids) (Homo sapiens)       IC50                    41
2  CC1CC(Nc2c(C#N)cnc3c(Cl)cc(N[C@@H](c4ccccc4)c4cn(C5CCN(C(C)(C)C)CC5)nn4)cc23)CC(C)O1 (stereo partly shown)  human Cot catalytic domain (30-397 amino acids) (Homo sapiens)       IC50                   206
3  CC(C)n1cc([C@@H](Nc2cc(Cl)c3ncc(C#N)c(Nc4ccc(F)c(Cl)c4)c3c2)c2cccc(CO)c2)nn1  human Cot catalytic domain (30-397 amino acids) (Homo sapiens)       IC50                    17
4  CC(C)N1CCC(n2cc([C@@H](Nc3cc(Cl)c4ncc(C#N)c(Nc5ccc(F)c(Cl)c5)c4c3)c3ccc(F)cc3)nn2)CC1  human Cot catalytic domain (30-397 amino acids) (Homo sapiens)       IC50                     4
5  C[C@@H](Nc1c(C#N)cnc2c(Cl)cc(N[C@@H](c3ccccc3)c3cn(C4CCN(C(C)(C)C)CC4)nn3)cc12)C1CCCCC1  human Cot catalytic domain (30-397 amino acids) (Homo sapiens)       IC50                   300

Requested read-out: IC50. Entry: `CC(C)(C)N1CCC(n2cc([C@@H](Nc3cc(Cl)c4ncc(C#N)c(Nc5ccc(F)c(Cl)c5)c4c3)c3cccc(CN4CCOCC4)c3)nn2)CC1` 6
